Assay: Pharmacokinetics in rats after i.v. and oral dosing
Format: in vivo
Details: male, CD/IGS, plasma; rat; after oral dosing of 5 mg/kg; read-out: PK Parameters (Rat) % F, fraction of absorption
bioavailability overview
Express the reported value numerically, then name its unit.

Please review the following examples before continuing.
1) CN(C)c1cc(-c2cccn2C)c(O)c2c1C[C@H]1C[C@H]3CC(O)=C(C(N)=O)C(=O)[C@@]3(O)C(O)=C1C2=O [Compound AT] | 42%
2) CN(C)c1ccc(O)c2c1C[C@H]1C[C@H]3[C@H](N(C)C)C(O)=C(C(N)=O)C(=O)[C@@]3(O)C(O)=C1C2=O [Minocycline, minocycline, reference compound] | 31%
3) COC(=O)c1cc(N(C)C)c2c(c1O)C(=O)C1=C(O)[C@]3(O)C(=O)C(C(N)=O)=C(O)C[C@@H]3C[C@@H]1C2 [Compound W] | 52%
4) CC(C)c1cc(N(C)C)c2c(c1O)C(=O)C1=C(O)[C@]3(O)C(=O)C(C(N)=O)=C(O)[C@@H](N(C)C)[C@@H]3C[C@@H]1C2 [Compound J] | 65%

Now for another entry.
So what's the measured bioavailability for this one? CCc1cc(N(C)C)c2c(c1O)C(=O)C1=C(O)[C@]3(O)C(=O)C(C(N)=O)=C(O)C[C@@H]3C[C@@H]1C2 [Compound AF]
77%

Cited source for all entries: patent US20100190755A1
